Hello, the source for this data is ChEMBL document CHEMBL1122909, in case you need it.

System: Tetrahymena thermophila
Assay: Evaluated in vitro for phototoxic effect on ciliate Tetrahymena thermophila cells
Assay type: functional
For each record, check the reported Phototoxic effect: if it is below 10 write Satisfied, else write Not satisfied.

Example entries begin here.
{"compound": "COc1c2occc2c(CN2CCOCC2)c2ccc(=O)oc12.Cl", "system": "Tetrahymena thermophila", "discrete.label": "Satisfied"}
{"compound": "COc1c2occc2c(CN(C)CCO)c2ccc(=O)oc12.Cl", "system": "Tetrahymena thermophila", "discrete.label": "Satisfied"}

Does the reported Phototoxic effect of `COc1c2occc2c(CN(C)C)c2ccc(=O)oc12.Cl` stay below 10?
Not satisfied

====

Test system: Tetrahymena thermophila
Test: Evaluated in vitro for phototoxic effect on ciliate Tetrahymena thermophila cells
Assay type: functional
Recorded Phototoxic effect values for a group of compounds are listed next.
The answer should be written as a number, with no unit following it.

Look over these answered cases.
{"smiles.entry": "CN1CC[N+](C)(CCCOc2c3occc3cc3ccc(=O)oc23)CC1.[Br-]", "Phototoxic effect": 10}
{"smiles.entry": "C[N+](C)(C)CCCOc1c2occc2cc2ccc(=O)oc12.[Br-]", "Phototoxic effect": 3}
{"smiles.entry": "COc1c2occc2c(CN2CCN(C)CC2)c2ccc(=O)oc12.Cl", "Phototoxic effect": 10}
{"smiles.entry": "COc1c2occc2cc2ccc(=O)oc12", "Phototoxic effect": 100}
{"smiles.entry": "COc1c2occc2c(CN(C(C)C)C(C)C)c2ccc(=O)oc12.Cl", "Phototoxic effect": 10}

Missing value: Phototoxic effect, Tetrahymena thermophila, entry `CC[N+](CC)(CC)Cc1c2ccoc2c(OC)c2oc(=O)ccc12.[Cl-]` . Fill in?
5

Missing value: Phototoxic effect, Tetrahymena thermophila, entry `COc1c2occc2c(C[N+](C)(C)C)c2ccc(=O)oc12.[Cl-]` . Fill in?
0.3

Missing value: Phototoxic effect, Tetrahymena thermophila, entry `COc1c2occc2c(CN(CCO)CCO)c2ccc(=O)oc12.Cl` . Fill in?
0.3

Missing value: Phototoxic effect, Tetrahymena thermophila, entry `Br.CCN(CC)CCCOc1c2occc2cc2ccc(=O)oc12` . Fill in?
150

Missing value: Phototoxic effect, Tetrahymena thermophila, entry `COc1c2occc2c(CN)c2ccc(=O)oc12.Cl` . Fill in?
5
